Tested on: S. pyogenes CN 10
Structures can show the parent of a compound that is named as a salt.
Recorded MIC by entry

Readout MIC for CO[C@@]1(NC(=O)C(c2ccccc2)S(=O)(=O)O)C(=O)N2[C@@H](C(=O)O)C(C)(C)S[C@@H]21 (some centres unmarked) [Example 1] , test system S. pyogenes CN 10, was 50 µg/mL

Readout MIC for CO[C@@]1(NC(=O)C(c2ccc(N)cc2)S(=O)(=O)O)C(=O)N2[C@@H](C(=O)O)C(C)(C)S[C@@H]21 (some centres unmarked) [Example 4] , test system S. pyogenes CN 10, was 25 µg/mL

Readout MIC for CO[C@@]1(NC(=O)C(c2ccc(O)cc2)S(=O)(=O)O)C(=O)N2[C@@H](C(=O)O)C(C)(C)S[C@@H]21 (some centres unmarked) [Example 8] , test system S. pyogenes CN 10, was 25 µg/mL

Readout MIC for CO[C@@]1(NC(=O)C(c2ccccc2F)S(=O)(=O)O)C(=O)N2[C@@H](C(=O)O)C(C)(C)S[C@@H]21 (some centres unmarked) [Example 9] , test system S. pyogenes CN 10, was 5 µg/mL

Readout MIC for CO[C@@]1(NC(=O)C(c2ccccc2)P(=O)(O)OC)C(=O)N2[C@@H](C(=O)O)C(C)(C)S[C@@H]21 (some centres unmarked) [Example 6, disodium salt] , test system S. pyogenes CN 10, was > 500 µg/mL

---

S. aureus Russell data, read-out MIC

# MOLECULE, MIC
data = [
    ("CO[C@@]1(NC(=O)C(c2ccccc2F)S(=O)(=O)O)C(=O)N2[C@@H](C(=O)O)C(C)(C)S[C@@H]21 (some centres unmarked) [Example 9]", "50 µg/mL"),
]

Query molecule follows.
// CO[C@@]1(NC(=O)C(c2ccccc2)S(=O)(=O)O)C(=O)N2[C@@H](C(=O)O)C(C)(C)S[C@@H]21 (some centres unmarked) [Example 1] : MIC value = > 100 µg/mL

---

Recorded MIC by entry
Test system: B. subtilis
Structures can show the parent of a compound that is named as a salt.

# COMPOUND, MIC
measured = [
    ("CO[C@@]1(NC(=O)C(c2ccccc2)S(=O)(=O)O)C(=O)N2[C@@H](C(=O)O)C(C)(C)S[C@@H]21 (some centres unmarked)", "> 100 µg/mL"),
    ("CO[C@@]1(NC(=O)C(c2ccccc2F)S(=O)(=O)O)C(=O)N2[C@@H](C(=O)O)C(C)(C)S[C@@H]21 (some centres unmarked)", "25 µg/mL"),
    ("CO[C@@]1(NC(=O)C(c2ccccc2)P(=O)(O)OC)C(=O)N2[C@@H](C(=O)O)C(C)(C)S[C@@H]21 (some centres unmarked) [Example 6, disodium salt]", "> 500 µg/mL"),
    ("CO[C@@]1(NC(=O)C(c2ccc(O)cc2)S(=O)(=O)O)C(=O)N2[C@@H](C(=O)O)C(C)(C)S[C@@H]21 (some centres unmarked)", "> 100 µg/mL"),
]

Readout MIC for CO[C@@]1(NC(=O)C(c2ccc(N)cc2)S(=O)(=O)O)C(=O)N2[C@@H](C(=O)O)C(C)(C)S[C@@H]21 (some centres unmarked) , test system B. subtilis, was > 100 µg/mL

---

S. aureus Oxford data, read-out MIC
Where a name gives a salt, the structure may show the parent alone.

# COMPOUND, MIC
rows = [
    ("CO[C@@]1(NC(=O)C(c2ccc(O)cc2)S(=O)(=O)O)C(=O)N2[C@@H](C(=O)O)C(C)(C)S[C@@H]21 (some centres unmarked)", "> 100 µg/mL"),
    ("CO[C@@]1(NC(=O)C(c2ccccc2)P(=O)(O)OC)C(=O)N2[C@@H](C(=O)O)C(C)(C)S[C@@H]21 (some centres unmarked) [Example 6, disodium salt]", "> 500 µg/mL"),
]

// CO[C@@]1(NC(=O)C(c2ccc(N)cc2)S(=O)(=O)O)C(=O)N2[C@@H](C(=O)O)C(C)(C)S[C@@H]21 (some centres unmarked) : MIC value = > 100 µg/mL

// CO[C@@]1(NC(=O)C(c2ccccc2)S(=O)(=O)O)C(=O)N2[C@@H](C(=O)O)C(C)(C)S[C@@H]21 (some centres unmarked) : MIC value = > 100 µg/mL

// CO[C@@]1(NC(=O)C(c2ccccc2F)S(=O)(=O)O)C(=O)N2[C@@H](C(=O)O)C(C)(C)S[C@@H]21 (some centres unmarked) : MIC value = 25 µg/mL
